Target: Microphthalmia-associated transcription factor (Homo sapiens)
Sequence (O75030 whole entry): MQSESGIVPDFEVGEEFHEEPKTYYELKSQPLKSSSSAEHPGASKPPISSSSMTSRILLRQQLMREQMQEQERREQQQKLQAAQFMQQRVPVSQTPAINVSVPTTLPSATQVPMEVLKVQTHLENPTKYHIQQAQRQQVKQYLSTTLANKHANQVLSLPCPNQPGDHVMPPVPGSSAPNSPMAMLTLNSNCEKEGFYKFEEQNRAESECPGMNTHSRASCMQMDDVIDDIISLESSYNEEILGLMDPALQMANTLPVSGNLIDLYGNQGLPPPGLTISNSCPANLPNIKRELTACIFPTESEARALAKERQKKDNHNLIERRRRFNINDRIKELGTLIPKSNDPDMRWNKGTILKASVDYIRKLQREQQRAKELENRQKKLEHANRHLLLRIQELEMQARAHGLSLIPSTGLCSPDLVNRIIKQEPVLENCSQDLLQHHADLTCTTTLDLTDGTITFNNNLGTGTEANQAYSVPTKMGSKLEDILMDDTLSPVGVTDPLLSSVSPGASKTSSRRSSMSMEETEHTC
Test: TRPM1 promoter luciferase signal decrease, dose response, MITF inhibitor project, cell-based, SK-MEL-5, cherry-picked, set 3 (AID 493073);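 also: SK-MEL-5 melanoma cells with luciferase driven by the MITF target TRPM1 promoter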
Type: functional
Calls of active or inactive are those of the source.
Reported AC50 values are given for each entry in this list.

In: Form: Entry = `CCOc1ccc(-[n+]2c(-c3ccc(Br)cc3)cn3c2CCCCC3)cc1` | System = Microphthalmia-associated transcription factor (Homo sapiens) | AC50 = ____
Out: 3.87 µM (active)

In: Recorded AC50 for `O=S(=O)(c1ccc(F)cc1)c1snnc1-c1ccccc1` with Microphthalmia-associated transcription factor (Homo sapiens), please?
Out: 15.1 µM (active)

In: I'm curious: which AC50 was measured for `COc1ccccc1OCC(=O)N/N=C/C=C/c1ccc([N+](=O)[O-])o1` tested on Microphthalmia-associated transcription factor (Homo sapiens)?
Out: 7.39 µM (active)

In: Find AC50 (Microphthalmia-associated transcription factor (Homo sapiens)) for the entry `CC1=C/C(=N\NC(=S)Nc2cccnc2)CC(C)(C)C1`
Out: 11 µM (active)

In: AC50 of `CCC(=O)OCCNc1cc(Sc2nc3ccccc3[nH]2)c2nonc2c1[N+](=O)[O-]` on Microphthalmia-associated transcription factor (Homo sapiens)?
Out: 9.14 µM (active)

In: Notebook entry, Microphthalmia-associated transcription factor (Homo sapiens) assay: AC50 of `Cc1cc(C)cc(N2C(=O)NC(=O)/C(=C\c3cccn3-c3ccccc3)C2=O)c1` = ?
Out: 13.8 µM (active)

In: Lookup: AC50 / Microphthalmia-associated transcription factor (Homo sapiens) / `Cc1ccc(C(=O)N/C(=C\c2ccc(-c3ccc(Br)cc3)o2)C(=O)NCCCN(C)C)cc1`
Out: 6.84 µM (active)

In: Given the entry `CC(C)(C)C(=O)Cn1ncc(Cl)c(Cl)c1=O` , what AC50 was observed with Microphthalmia-associated transcription factor (Homo sapiens)?
Out: 10.4 µM (active)

In: What reported AC50 corresponds to N=c1n(Cc2ccc(Cl)cc2)c2ccccc2n1CC(O)COc1ccccc1 (stereo unspecified) on Microphthalmia-associated transcription factor (Homo sapiens)?
Out: 9.25 µM (active)

In: Identify the measured AC50 of `O=C(N/N=C/c1cc(Br)ccc1O)c1ccncc1` for Microphthalmia-associated transcription factor (Homo sapiens).
Out: 9.36 µM (active)

In: Query for Microphthalmia-associated transcription factor (Homo sapiens): what AC50 does the record show for `CCN(CC)c1ccc(/C=N/NC(=O)c2cccc(S(=O)(=O)N3CCOCC3)c2)c(O)c1` ?
Out: 1.52 µM (active)

###

System: BJ
Test: cytotoxicity toward BJ-TERT-LT-ST fibroblasts, dose response, cell-based, RAS-independent, luminescence (AID 1935);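 also: BJ fibroblasts immortalized with TERT plus LT and ST oncogenes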
Type: functional
Conditions: Homo sapiens
The source made the active and inactive calls.
MEASUREMENT_NAME: EC50

1) C=CS(=O)(=O)c1ccc(Oc2ccc(S(=O)(=O)C=C)cc2)cc1    > 150 µM (inconclusive)

In: Look at this molecule and give its reported EC50. `O=S(=O)(c1ccc(F)cc1)c1snnc1-c1ccccc1`
Out: 6.51 µM (inconclusive)

In: Field request: EC50 | item: `CCOCCCNC(=O)c1ccc2c(c1)N=C(CC)c1cc(Br)ccc1S2`
Out: 0.455 µM (active)

In: Could you share which EC50 value was measured for `Cc1nc(NC(=O)CCl)sc1C(=O)N(C)C` ?
Out: > 150 µM (not active)

###

Measured IC50, listed per entry for reference.
Biological target: Aminopeptidase N (Plasmodium falciparum FcB1/Columbia, UniProt O96935)
Sequence (O96935 whole entry): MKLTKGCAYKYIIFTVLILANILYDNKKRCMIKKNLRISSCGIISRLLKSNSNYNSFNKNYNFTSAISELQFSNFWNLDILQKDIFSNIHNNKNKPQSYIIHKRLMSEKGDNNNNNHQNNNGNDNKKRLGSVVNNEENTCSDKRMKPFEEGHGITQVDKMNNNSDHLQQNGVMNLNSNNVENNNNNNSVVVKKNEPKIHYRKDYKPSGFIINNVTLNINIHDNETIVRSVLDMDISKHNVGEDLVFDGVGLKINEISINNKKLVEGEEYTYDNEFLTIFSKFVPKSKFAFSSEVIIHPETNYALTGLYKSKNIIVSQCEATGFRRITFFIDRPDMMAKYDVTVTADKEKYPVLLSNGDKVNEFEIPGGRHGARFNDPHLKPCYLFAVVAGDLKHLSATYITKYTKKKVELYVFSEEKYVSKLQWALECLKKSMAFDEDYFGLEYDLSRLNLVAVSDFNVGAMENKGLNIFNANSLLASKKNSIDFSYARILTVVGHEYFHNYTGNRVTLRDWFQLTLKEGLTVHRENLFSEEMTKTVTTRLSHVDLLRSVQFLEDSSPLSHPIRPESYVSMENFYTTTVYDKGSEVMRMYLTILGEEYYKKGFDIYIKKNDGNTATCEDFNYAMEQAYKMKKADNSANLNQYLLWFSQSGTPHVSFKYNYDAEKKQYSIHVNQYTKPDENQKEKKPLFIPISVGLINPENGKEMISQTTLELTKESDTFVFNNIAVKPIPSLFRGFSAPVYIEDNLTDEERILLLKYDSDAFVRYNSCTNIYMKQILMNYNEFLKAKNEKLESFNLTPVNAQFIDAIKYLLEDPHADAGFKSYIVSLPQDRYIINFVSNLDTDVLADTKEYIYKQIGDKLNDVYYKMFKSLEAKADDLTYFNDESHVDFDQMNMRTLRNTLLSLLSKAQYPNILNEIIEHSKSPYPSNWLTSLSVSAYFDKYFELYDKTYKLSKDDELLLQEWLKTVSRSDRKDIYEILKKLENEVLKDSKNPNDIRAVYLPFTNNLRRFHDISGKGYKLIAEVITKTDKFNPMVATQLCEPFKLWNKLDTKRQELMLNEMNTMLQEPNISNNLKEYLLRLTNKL
Test: P. falciparum M1AAP inhibitors, biochemical, fluorogenic H-Leu-NHMec substrate, 1536-well (AID 1445)
Set-up: species or system Plasmodium falciparum 3D7, 3D7
The source made the active and inactive calls.

1. O=C(N/N=C/c1cc(Br)ccc1O)c1ccncc1    7.95 µM (active)
2. Cc1cccc(NC(=O)N(Cc2cc3cc(C)ccc3[nH]c2=O)CC2COCCO2)c1 (stereo not given)    45.9 µM (active)
3. Cc1ccc(NC(=O)C(C)N2C(=O)c3ccccc3C2=O)cc1S(=O)(=O)N1CCOCC1 (stereo not given)    115 µM (active)
4. O=C1Nc2ccccc2/C1=C1/SC(=S)N(NC(=O)c2cccc(O)c2)C1=O    4.08 µM (active)

Next compound, please.
In: Item Cc1cc(NS(=O)(=O)c2ccc(NC(=O)C(CC(C)C)N3C(=O)c4ccccc4C3=O)cc2)nc(C)n1 (stereo not given) has what recorded IC50?
Out: 38 µM (active)

###

Target: Protein RecA (Mycobacterium tuberculosis, UniProt P9WHJ3)
Assay: Fluorescence Cell-Free Homogeneous Dose Retest to Identify Inhibitors of RecA-Intein Splicing Activity. [Related pubchem assays (depositor defined):AID2097, AID2223, AID489010, AID492950]
Assay type: functional
Active and inactive are the calls of the source.
Write down the outcome that applies. Available outcomes: active, inactive

1. CC1=CC(C)(C)N2C(=O)/C(=N/c3ccc(O)cc3)c3cccc1c32    inactive
2. CCc1nnc(N/N=C/c2cc(Br)c(O)cc2O)n1N    active
3. CNc1cc(Cl)c2nonc2c1[N+](=O)[O-]    active
4. CC1=NN(c2ccccc2)C(=O)/C1=C\c1cn(C)c2ccccc12    active
5. Cc1cc(C(=O)c2ccc(Cl)cc2)c(NC(=O)CCl)s1    active
6. Cc1[nH]n(-c2ccccc2)c(=O)c1/C=N\NC(=O)C1COc2ccccc2O1 (stereo not given)    active
7. O=C(O)c1cccc(NC2=C(n3nnc4ccccc43)C(=O)c3ccccc3C2=O)c1    active
8. N#CC(C#N)=NNc1ccc(-n2ccc(C(F)(F)F)n2)cc1    active
9. Cc1ccccc1C(=O)NNC(=S)NC(=O)COc1ccccc1    active
10. CC(CNc1ccccc1O)C(=O)O (stereo not given)    active

In: Recorded call for `O=C1Cc2ccccc2C(=O)N1Cc1ccccc1` ?
Out: active

In: I would be grateful if you could indicate the recorded call for `CCOc1cc(/C=C2/SC(=S)N(Cc3ccccc3)C2=O)ccc1O` .
Out: active

In: For `CC(=O)c1c(C)nc(-c2ccc(Cl)cc2)nc1/N=C/N(C)C` , what call appears in the results of this test?
Out: inactive

In: Can you look up the reported call for `O=c1c(Cl)c(NCCCO)cnn1-c1nc2ccccc2[nH]1` for me?
Out: active

In: Dear all, I need the recorded test outcome for `Cn1c(-c2ccccc2)c(C(=O)CCl)c2ccccc21` , thank you.
Out: active

###

This section presents compounds with their documented EC50 values.
Target: UniProt:Q8VNN2
Sequence (Q8VNN2 whole entry): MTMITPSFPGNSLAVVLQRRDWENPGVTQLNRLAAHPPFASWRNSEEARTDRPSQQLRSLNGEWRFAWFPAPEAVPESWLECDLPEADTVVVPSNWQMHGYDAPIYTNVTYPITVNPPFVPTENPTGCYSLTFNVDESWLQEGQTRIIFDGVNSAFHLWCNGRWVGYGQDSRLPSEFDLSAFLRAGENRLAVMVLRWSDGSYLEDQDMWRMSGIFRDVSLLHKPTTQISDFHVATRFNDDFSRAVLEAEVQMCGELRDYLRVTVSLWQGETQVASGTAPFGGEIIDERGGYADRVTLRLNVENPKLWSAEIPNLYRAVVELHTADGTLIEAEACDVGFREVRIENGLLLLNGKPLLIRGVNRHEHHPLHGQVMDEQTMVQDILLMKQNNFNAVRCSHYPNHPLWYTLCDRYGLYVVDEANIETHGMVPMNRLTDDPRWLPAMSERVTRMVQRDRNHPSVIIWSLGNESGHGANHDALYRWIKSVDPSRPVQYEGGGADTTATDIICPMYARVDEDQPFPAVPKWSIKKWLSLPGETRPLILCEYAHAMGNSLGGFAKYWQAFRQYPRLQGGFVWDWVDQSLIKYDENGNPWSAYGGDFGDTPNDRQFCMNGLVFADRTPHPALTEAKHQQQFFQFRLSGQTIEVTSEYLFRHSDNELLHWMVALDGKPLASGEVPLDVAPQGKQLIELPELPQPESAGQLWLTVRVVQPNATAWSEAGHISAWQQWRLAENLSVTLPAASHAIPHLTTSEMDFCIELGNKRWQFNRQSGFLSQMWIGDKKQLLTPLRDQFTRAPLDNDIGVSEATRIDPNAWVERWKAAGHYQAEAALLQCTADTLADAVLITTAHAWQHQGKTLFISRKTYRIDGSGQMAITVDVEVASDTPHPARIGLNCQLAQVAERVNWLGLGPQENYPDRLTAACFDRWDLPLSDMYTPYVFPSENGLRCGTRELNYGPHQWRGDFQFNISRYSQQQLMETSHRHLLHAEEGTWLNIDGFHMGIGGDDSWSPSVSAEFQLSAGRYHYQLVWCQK
Format: functional
Calls of active or inactive are those of the source.

// below: answered compounds
1. CNc1cc(Cl)c2nonc2c1[N+](=O)[O-]    > 31.5 µM (inactive)
2. CC1=C/C(=N\NC(=S)Nc2cccnc2)CC(C)(C)C1    > 31.5 µM (inactive)
3. CC(=O)N1N=C(c2cccs2)CC1c1cccc([N+](=O)[O-])c1 (centres undefined)    20.4 µM (active)

Here is the next item to consider.
In: I would be grateful if you could share the reported EC50 for `CCC(=O)OCCNc1cc(Sc2nc3ccccc3[nH]2)c2nonc2c1[N+](=O)[O-]` .
Out: > 31.5 µM (inactive)
